Target: T1, CRBN, Q96SW2;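 note: pooled lentiviral library of zinc finger degron-EGFP fusions in mCherry-positive Jurkat cells, FACS-sorted after compound exposure, with degron abundance counted by next-generation sequencing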
T1 chain: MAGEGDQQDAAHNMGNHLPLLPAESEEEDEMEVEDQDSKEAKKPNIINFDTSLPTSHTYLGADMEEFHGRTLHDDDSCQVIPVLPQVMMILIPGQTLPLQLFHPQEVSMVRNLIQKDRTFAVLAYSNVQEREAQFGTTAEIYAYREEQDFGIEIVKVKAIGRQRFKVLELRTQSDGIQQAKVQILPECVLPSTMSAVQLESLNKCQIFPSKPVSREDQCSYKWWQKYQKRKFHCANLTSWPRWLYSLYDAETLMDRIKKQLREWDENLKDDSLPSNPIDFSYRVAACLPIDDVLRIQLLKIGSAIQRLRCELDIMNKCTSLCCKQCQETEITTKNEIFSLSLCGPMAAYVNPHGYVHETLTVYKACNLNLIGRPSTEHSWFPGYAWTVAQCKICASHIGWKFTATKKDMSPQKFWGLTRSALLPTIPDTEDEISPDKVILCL
Assay: log2 fold change of degron read counts, EGFP-low vs EGFP+ sorted cells (limma voom), compound-induced degradation; higher = more compound-induced degradation of the degron-EGFP fusion; degrons are variants of IKZF1/3 zinc finger 2; compound dose not given here
Settings: Jurkat; 18 h; compound: compound 19 (5-tert-butyl-thalidomide)
The full ranking holds about 8,300 sequences; the median of “log2 fold change of degron read counts, EGFP-low vs EGFP+ sorted cells (limma voom), compound-induced degradation” is about -1.1, and the highest 2% start at about 3.2. The full list was thinned out, with the highest values kept by preference.
# reported log2 fold change of degron read counts; entries follow
ASSAY_METRIC: log2 fold change of degron read counts

>>> print(df.to_string())
                            ordered_residues                            assay_metric  assay_value
 0  FECNVCGAHFTQKGNLLRHIKL [46F_47E_49N_50V_52G_53A_54H_55F_67L_, Q9UKT9]  log2 fold change of degron read counts        -2.58
 1  LCCEICGFTCTQKGNLLRHIKL [46L_47C_49E_50I_52G_53F_54T_55C_67L_, Q9UKT9]  log2 fold change of degron read counts         2.49
 2  LMCEICGFTCTQKGNLLRHIKL [46L_47M_49E_50I_52G_53F_54T_55C_67L_, Q9UKT9]  log2 fold change of degron read counts        0.136
 3  FFCEICGAAFTQKGNLLRHIKL [46F_47F_49E_50I_52G_53A_54A_55F_67L_, Q9UKT9]  log2 fold change of degron read counts         3.55
 4  FMCEICGAAFTQKGNLLRHIKL [46F_47M_49E_50I_52G_53A_54A_55F_67L_, Q9UKT9]  log2 fold change of degron read counts         2.64
 5  FFCPICGHEFTQKGNLLRHIKL [46F_47F_49P_50I_52G_53H_54E_55F_67L_, Q9UKT9]  log2 fold change of degron read counts        -1.46
 6  FKCPVCGASFTQKGNLLRHIKL [46F_47K_49P_50V_52G_53A_54S_55F_67L_, Q9UKT9]  log2 fold change of degron read counts         1.07
 7  FGCEICGAFFTQKGNLLRHIKL [46F_47G_49E_50I_52G_53A_54F_55F_67L_, Q9UKT9]  log2 fold change of degron read counts         2.48
 8  FGCPVCGASFTQKGNLLRHIKL [46F_47G_49P_50V_52G_53A_54S_55F_67L_, Q9UKT9]  log2 fold change of degron read counts         3.39
 9  FWCPICGHTFTQKGNLLRHIKL [46F_47W_49P_50I_52G_53H_54T_55F_67L_, Q9UKT9]  log2 fold change of degron read counts        -1.68
10  LTCEICGFTCTQKGNLLRHIKL [46L_47T_49E_50I_52G_53F_54T_55C_67L_, Q9UKT9]  log2 fold change of degron read counts         1.29
11  LTCEICGFFCTQKGNLLRHIKL [46L_47T_49E_50I_52G_53F_54F_55C_67L_, Q9UKT9]  log2 fold change of degron read counts       0.0809
12  FTCPVCGASFTQKGNLLRHIKL [46F_47T_49P_50V_52G_53A_54S_55F_67L_, Q9UKT9]  log2 fold change of degron read counts         1.45
13  FRCEICGAAFTQKGNLLRHIKL [46F_47R_49E_50I_52G_53A_54A_55F_67L_, Q9UKT9]  log2 fold change of degron read counts         2.72
14  FLCDICGACFTQKGNLLRHIKL [46F_47L_49D_50I_52G_53A_54C_55F_67L_, Q9UKT9]  log2 fold change of degron read counts        -0.48
15  LLCEICGFTCTQKGNLLRHIKL [46L_47L_49E_50I_52G_53F_54T_55C_67L_, Q9UKT9]  log2 fold change of degron read counts       0.0109
16  FVCPVCGASFTQKGNLLRHIKL [46F_47V_49P_50V_52G_53A_54S_55F_67L_, Q9UKT9]  log2 fold change of degron read counts        0.217
17  FFCDICGAYFTQKGNLLRHIKL [46F_47F_49D_50I_52G_53A_54Y_55F_67L_, Q9UKT9]  log2 fold change of degron read counts         2.55
18  LVCEICGFTCTQKGNLLRHIKL [46L_47V_49E_50I_52G_53F_54T_55C_67L_, Q9UKT9]  log2 fold change of degron read counts         1.83
19  FECEQCGAIFTQKGNLLRHIKL [46F_47E_49E_50Q_52G_53A_54I_55F_67L_, Q9UKT9]  log2 fold change of degron read counts        -2.86
20  FQCPVCGASFTQKGNLLRHIKL [46F_47Q_49P_50V_52G_53A_54S_55F_67L_, Q9UKT9]  log2 fold change of degron read counts         2.35
21  FHCEICGAAFTQKGNLLRHIKL [46F_47H_49E_50I_52G_53A_54A_55F_67L_, Q9UKT9]  log2 fold change of degron read counts         3.24
22  FMCEICGHTFTQKGNLLRHIKL [46F_47M_49E_50I_52G_53H_54T_55F_67L_, Q9UKT9]  log2 fold change of degron read counts        -3.32
23  FNCPVCGASFTQKGNLLRHIKL [46F_47N_49P_50V_52G_53A_54S_55F_67L_, Q9UKT9]  log2 fold change of degron read counts         2.78
24  FECPVCGASFTQKGNLLRHIKL [46F_47E_49P_50V_52G_53A_54S_55F_67L_, Q9UKT9]  log2 fold change of degron read counts         1.95
25  FMCPVCGASFTQKGNLLRHIKL [46F_47M_49P_50V_52G_53A_54S_55F_67L_, Q9UKT9]  log2 fold change of degron read counts         1.06
26  FVCDVCGAVFTQKGNLLRHIKL [46F_47V_49D_50V_52G_53A_54V_55F_67L_, Q9UKT9]  log2 fold change of degron read counts         -2.2
27  LWCEICGFTCTQKGNLLRHIKL [46L_47W_49E_50I_52G_53F_54T_55C_67L_, Q9UKT9]  log2 fold change of degron read counts         3.55
28  FSCPVCGASFTQKGNLLRHIKL [46F_47S_49P_50V_52G_53A_54S_55F_67L_, Q9UKT9]  log2 fold change of degron read counts         3.33
